For each record, write down the corresponding thermal diffusivity.
# conditionSet: 383.15 K; 101.33 kPa; Liquid; Laser flash apparatus

CCCCCCCCCC(=O)OC [methyl decanoate] : 7.17e-08 m2/s

Each of the following entries comes with a recorded value; kindly state thermal diffusivity for each.
1. CCCCCCCCCCC(=O)OC [methyl undecanoate]
2. CCCCCCCCC(=O)OC [methyl nonanoate]
3. CCCCCCCC(=O)OC [methyl octanoate]
4. CCCCCCCCCCCC(=O)OC [methyl dodecanoate]

["7.26e-08 m2/s", "7.08e-08 m2/s", "6.99e-08 m2/s", "7.3e-08 m2/s"]

----------
# conditionSet: 353.15 K; 101.33 kPa; Liquid; Laser flash apparatus
recordedEndpoint: thermal diffusivity (m2/s)
Give bare numbers, in m2/s.

Some molecules with known thermal diffusivity results, for comparison:
CCCCCCCCC(=O)OC [methyl nonanoate] : 7.43e-08
CCCCCCC(=O)OC [methyl heptanoate] : 7.25e-08
CCCCCCCCCC(=O)OC [methyl decanoate] : 7.52e-08
CCCCCCCCCCC(=O)OC [methyl undecanoate] : 7.62e-08
CCCCCCCC(=O)OC [methyl octanoate] : 7.34e-08

Kindly consider the entry below.
Reported thermal diffusivity ( CCCCCCCCCCCC(=O)OC [methyl dodecanoate] ) = 7.67e-08

----------
# assaySummary: molar heat capacity at constant pressure
# conditionSet: 333.15 K; 101.33 kPa; Liquid; DSC
# strict inequality: molar heat capacity at constant pressure < 300 J/K/mol yields Satisfied, everything else yields Not satisfied

Illustrative cases are given below, each with its answer.
CCCCCCCCCCC(=O)OC [methyl undecanoate] : Not satisfied
CCCCCC(=O)OC [methyl hexanoate] : Satisfied
CCCCCCCCCC(=O)OC [methyl decanoate] : Not satisfied
CCCCCCCCC(=O)OC [methyl nonanoate] : Not satisfied
CCCCCCCC(=O)OC [methyl octanoate] : Not satisfied

Next, consider the following compound.
Report whether reported molar heat capacity at constant pressure is lower than 300 J/K/mol (strictly) for CCCCCCCCCCCC(=O)OC [methyl dodecanoate]
Not satisfied

----------
# conditionSet: 313.15 K; 101.33 kPa; Liquid; Laser flash apparatus
recordedEndpoint: thermal diffusivity (m2/s)
Numbers only, in m2/s.

In the examples that follow, each entry is paired with its recorded thermal diffusivity.
CCCCCCCCCC(=O)OC [methyl decanoate] : 7.99e-08
CCCCCCCCCCCC(=O)OC [methyl dodecanoate] : 8.15e-08

Go through the items and report each one's thermal diffusivity.
1. CCCCCCCC(=O)OC [methyl octanoate]
2. CCCCCCCCCCC(=O)OC [methyl undecanoate]
3. CCCCCCCCC(=O)OC [methyl nonanoate]
4. CCCCCC(=O)OC [methyl hexanoate]
5. CCCCCCC(=O)OC [methyl heptanoate]

1: 7.81e-08; 2: 8.1e-08; 3: 7.89e-08; 4: 7.66e-08; 5: 7.71e-08

----------
# conditionSet: 343.15 K; 101.33 kPa; Liquid; Laser flash apparatus
Consider the following compounds; for each one, report its thermal diffusivity.
Numbers only, in m2/s.

CCCCCCCCCCC(=O)OC [methyl undecanoate] : 7.74e-08
CCCCCCCCCCCC(=O)OC [methyl dodecanoate] : 7.79e-08
CCCCCCCC(=O)OC [methyl octanoate] : 7.46e-08
CCCCCCCCC(=O)OC [methyl nonanoate] : 7.54e-08
CCCCCCC(=O)OC [methyl heptanoate] : 7.36e-08

Attention now turns to another entry.
GET /value?item= CCCCCCCCCC(=O)OC [methyl decanoate] &field=thermal diffusivity returns 7.64e-08
